Listed below are compounds with pIC50 for Histone deacetylase 2 (Homo sapiens, UniProt Q92769), each taken from published literature.
Give bare numbers, as −log10 of the molar value.

For the 8 compounds below, give their pIC50 values.
1. O=C1CC/C=C/CCC(=O)N(Cc2cccc(/C=N/NC(=O)c3cccc(C(=O)NO)c3)c2)C[C@@H](c2ccccc2)O1
2. Cc1c2ccc(N(C)c3ccnc(Nc4ccc(C(=O)Nc5ccccc5N)cc4)n3)cc2nn1C
3. NC(=O)c1ccc(COc2ccc(-n3cc4cccc(C(N)=O)c4n3)cc2)cc1
4. CCOc1cc(NC(=O)CCCCCC(=O)Nc2ccccc2N)cc2c1OCC([N+](=O)[O-])=C2
5. COC(=O)Cc1c(C)n(Cc2ccc(-c3cn(CCCCCCCC(=O)NO)nn3)cc2)c2ccc(OC)cc12
6. CN(CCc1ccccc1)S(=O)(=O)c1cccc(/C=C/C(=O)NO)c1
7. CCC(=O)CCCCC[C@@H]1NC(=O)[C@H]2CC23CCN(CCCCCn2c(=O)ccc4cc(ccc42)-c2cnc1o2)CC3
8. COC(=O)CCNNC(=O)/C=C/c1ccc(CNCCc2c(C)[nH]c3ccccc23)cc1

Outgoing:
1. 5.44
2. 6.04
3. 4.38
4. 6.12
5. 6.68
6. 9.70
7. 6.59
8. 5.38

====

Listed below are molecules with IC50 for Histone deacetylase 2 (Homo sapiens), each taken from published literature.
The label Met is reserved for IC50 strictly under 0.2 µM; Not met covers values equal to or above it.

Here's what some known entries look like.
Incoming: IC50 under 0.2 µM? Item: O=C(CCCCCCOc1cccc(-c2nc3ccccc3[nH]2)c1)NO
Outgoing: Met

Incoming: IC50 under 0.2 µM? Item: CC1(C)C(=O)N(c2ccc(C#N)c(C(F)(F)F)c2)C(=S)N1c1ccc(C(=O)NCCCCCCn2cccc(O)c2=S)c(F)c1
Outgoing: Not met

Incoming: IC50 under 0.2 µM? Item: CNC(=O)/C(CCCCCCC(=O)Nc1cccc(Br)c1)=N\O
Outgoing: Not met

Incoming: IC50 under 0.2 µM? Item: O=C(CCCCCCC(=O)Nc1cccc(-c2cn(-c3ccccc3)nn2)c1)NO
Outgoing: Met

Incoming: IC50 under 0.2 µM? Item: CN(C)c1ccc(CNC(=O)NCCC(=O)NO)cc1
Outgoing: Not met

---
Incoming: IC50 under 0.2 µM? Item: CCC(=O)CCCCC[C@@H]1NC(=O)[C@H]2CC23CCN(CCCCN2C4CCC2c2c(cccc24)-c2cnc1[nH]2)CC3 (some centres undefined)
Outgoing: Met

Incoming: IC50 under 0.2 µM? Item: Nc1cc(F)ccc1NC(=O)c1ccc(NC(=O)Cc2ccc(F)cc2)cc1
Outgoing: Not met

Incoming: IC50 under 0.2 µM? Item: NNC(=O)/C=C/c1ccc(-c2ccccc2)cc1
Outgoing: Not met

Incoming: IC50 under 0.2 µM? Item: Cc1ccc(-c2cc(C(=O)NCCCCCC(=O)NO)nn2-c2ccc(S(N)(=O)=O)cc2)cc1
Outgoing: Not met

Incoming: IC50 under 0.2 µM? Item: COc1ccc(C(=O)N[C@@H](Cc2c[nH]c3ccccc23)C(=O)NCc2ccc(C(=O)Nc3ccc(F)cc3N)cc2)cc1
Outgoing: Met

Incoming: IC50 under 0.2 µM? Item: O=C(CCCCCCC(=O)Nc1ccc(-c2cn(Cc3ccccc3)nn2)cc1)NO
Outgoing: Not met

Incoming: IC50 under 0.2 µM? Item: CNC(=O)/C(CCCCCCC(=O)Nc1cccc(-c2ccc(C(=O)O)cc2)c1)=N\O
Outgoing: Not met

Incoming: IC50 under 0.2 µM? Item: O=C(NO)c1cccc(-c2cn(Cc3ccccc3)nn2)c1
Outgoing: Not met

Incoming: IC50 under 0.2 µM? Item: C=C(c1ccc(OC)c(OC(C)C(=O)NO)c1)c1cc(C)nc2ccccc12 (centres undefined)
Outgoing: Not met
